The entries below come with measured Emax values attached.
- ASSAYED TARGET: purified human recombinant GK (Homo sapiens)
- Sequence (P35557 whole entry): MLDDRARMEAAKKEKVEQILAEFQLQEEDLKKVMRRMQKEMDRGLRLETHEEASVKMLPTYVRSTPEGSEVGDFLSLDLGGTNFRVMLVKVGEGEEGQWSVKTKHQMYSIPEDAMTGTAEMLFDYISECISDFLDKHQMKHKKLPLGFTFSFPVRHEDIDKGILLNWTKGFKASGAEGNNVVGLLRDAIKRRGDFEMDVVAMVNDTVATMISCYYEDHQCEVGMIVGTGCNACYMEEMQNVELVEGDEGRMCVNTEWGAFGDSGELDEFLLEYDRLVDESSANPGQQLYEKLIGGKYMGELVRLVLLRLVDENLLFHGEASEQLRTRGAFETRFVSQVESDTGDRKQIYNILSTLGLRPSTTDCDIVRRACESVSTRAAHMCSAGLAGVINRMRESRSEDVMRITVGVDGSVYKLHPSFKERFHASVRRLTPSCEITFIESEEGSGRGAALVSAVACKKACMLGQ
- ASSAY METHOD TEXT: Glucokinase activity assay (coupled enzymatic assay with G6PD, NADH absorbance at 340 nm)
- Assay type: biochemical
- STATED CONDITIONS: Emax of % change in S0.5 (% ΔS0.5); vehicle control S0.5 = 0%, 0 mM glucose = 100%
OBSERVATION TYPE: Emax

[[record]]
compound = "O=C(Nc1ncc(Oc2ccc(CO)cc2)s1)C(OC1CCOCC1)c1ccc(S(=O)(=O)C2CC2)cc1 (stereo not shown)"
observation_type = "Emax"
assay_result = "91%"

[[record]]
compound = "CCOc1ccc2nc(NC(=O)C(OC3CCOCC3)c3ccc(S(=O)(=O)C4CC4)cc3)sc2n1 (single isomer, unassigned; (+)) [Example D10A]"
observation_type = "Emax"
assay_result = "92%"

[[record]]
compound = "O=C(O)c1ccc(Oc2cnc(NC(=O)C(Oc3ccc(F)cc3F)c3ccc(S(=O)(=O)C4CC4)cc3)s2)cc1 (single isomer, unassigned; (+)) [Example D11A]"
observation_type = "Emax"
assay_result = "95%"

[[record]]
compound = "O=C(O)c1ccc(Oc2cnc(NC(=O)C(OC3CCOCC3)c3ccc(S(=O)(=O)C4CC4)cc3)s2)cc1 (single isomer, unassigned; (+))"
observation_type = "Emax"
assay_result = "92%"

